Just for reference, patent US4952408A is where these values come from.

assay: tissue drug levels of free and liposomal vincristine (radioimmunoassay); assay type: in vivo, CD2 F1 mice; details: mouse, brain, iv, 1 mg/kg, brain; 1.0 mg; 2h; read-out: vincristine level, brain
MEASURE: concentration at 2 h (ng/g)
State just the number; it will be interpreted in ng/g.

// concentration at 2 h lookup, compound = CC[C@]1(O)C[C@H]2CN(CCc3c([nH]c4ccccc34)[C@@](C(=O)OC)(c3cc4c(cc3OC)N(C=O)[C@H]3[C@@](O)(C(=O)OC)[C@H](OC(C)=O)[C@]5(CC)C=CCN6CC[C@]43[C@@H]65)C2)C1 [free vincristine, vincristine] , result: 21
